// values below are reported Serum cholesterol
# Test system: total cholesterol value in the blood serum
# protocol: Total cholesterol in blood serum of mice fed a diet enriched with cholesterol and bile acids (Table 1)
# Assay type: in vivo
# test.context: experiment [V]; 0.2% in diet, oral, 8 to 12 days; control 372
Write it as a number; the unit mg % goes unstated.

Record excerpt, results attached:
Fill in the blank: the reported Serum cholesterol of CCCCCC=CCC=CCCCCCCCC(=O)NC(Cc1ccccc1)c1ccccc1 (stereo not drawn) [l- C17 H31 CO] is ____.
208

Try this molecule next: CCCCCCCC/C=C\CCCCCCCC(=O)NC(Cc1ccccc1)c1ccccc1 (stereo not drawn) [d- drawing 33]
222

Try this molecule next: CCCCCC=CCC=CCCCCCCCC(=O)NC(Cc1ccccc1)c1ccccc1 (stereo not drawn) [d- C17 H31 CO]
200

Try this molecule next: CCCCCCCC/C=C\CCCCCCCC(=O)NC(Cc1ccccc1)c1ccccc1 (stereo not drawn) [l- drawing 33]
263

Continuing:
Fill in the blank: the reported Serum cholesterol of CC(C)CCCCCCCCCCCCCCC(=O)NC(Cc1ccccc1)c1ccccc1 (stereo not drawn) [d- iso-C17 H35 CO] is ____.
209

###

// values below are reported Serum cholesterol
# System: total cholesterol value in the blood serum
# protocol: Total cholesterol in blood serum of mice fed a diet enriched with cholesterol and bile acids (Table 1)
# Type: in vivo
# test.context: experiment [V]; 0.2% in diet, oral, 8 to 12 days; control 372
Write it as a number; the unit mg % goes unstated.

Fill in the blank: the reported Serum cholesterol of CCCCC/C=C\C/C=C\CCCCCCCC(=O)O [Linoleic acid, reference compound] is ____.
351

Try this compound next: CC(C)CCCCCCCCCCCCCCC(=O)NC(Cc1ccccc1)c1ccccc1 (centres unmarked) [iso-C17 H35 CO]
221

Try this compound next: CCCCCCCC/C=C\CCCCCCCC(=O)NC(Cc1ccccc1)c1ccccc1 (centres unmarked) [drawing 33]
245

Try this compound next: CCCCCC=CCC=CCCCCCCCC(=O)NC(Cc1ccccc1)c1ccccc1 (centres unmarked) [C17 H31 CO]
214

Try this compound next: CC/C=C\C/C=C\C/C=C\CCCCCCCC(=O)NC(Cc1ccccc1)c1ccccc1 (centres unmarked) [drawing 32]
238

###

// values below are reported Liver cholesterol
# Tested on: liver cholesterol
# protocol: Liver cholesterol (deposition of cholesterol and fat in the liver) of mice fed a cholesterol-rich diet (Table 1)
# Assay type: in vivo
# test.context: experiment [III]; 0.2% in diet, oral, 8 to 12 days; control not given
Dear colleague, please send the value followed by its unit.

Fill in the blank: the reported Liver cholesterol of CCCCC/C=C\C/C=C\CCCCCCCC(=O)NC(C)c1ccc(Cl)cc1 (centres unmarked) [drawing 17] is ____.
946 mg/100 g.

Try this compound next: CCCCC/C=C\C/C=C\CCCCCCCC(=O)NC(C)c1ccc(C)cc1 (centres unmarked) [drawing 22]
1047 mg/100 g.

Try this compound next: CCCCC/C=C\C/C=C\CCCCCCCC(=O)NC(C)c1ccc(Br)cc1 (centres unmarked)
1341 mg/100 g.

Try this compound next: CCCCC/C=C\C/C=C\CCCCCCCC(=O)NC(CC)c1ccc(C)cc1 (centres unmarked) [drawing 21]
1065 mg/100 g.

Continuing:
Fill in the blank: the reported Liver cholesterol of CCCCC/C=C\C/C=C\CCCCCCCC(=O)NC(C)c1ccc(Cl)c(Cl)c1 (centres unmarked) [drawing 18] is ____.
856 mg/100 g.

###

// values below are reported Serum cholesterol
# Tested on: total cholesterol value in the blood serum
# protocol: Total cholesterol in blood serum of mice fed a diet enriched with cholesterol and bile acids (Table 1)
# Assay type: in vivo
# test.context: experiment [IV]; 0.2% in diet, oral, 8 to 12 days; control 595
Write it as a number; the unit mg % goes unstated.

Fill in the blank: the reported Serum cholesterol of CC/C=C\C/C=C\C/C=C\CCCCCCCC(=O)NC(C)c1ccccc1C (stereo not drawn) [drawing 29] is ____.
222

Try this compound next: CCC(NC(=O)CCCCCCCCCCCCCCC(C)C)c1ccc(C(C)(C)C)cc1 (stereo not drawn)
297

Try this compound next: CCCCC/C=C\C/C=C\CCCCCCCC(=O)NC(C)c1ccc(Cl)c(Cl)c1 (stereo not drawn) [drawing 26]
251

Try this compound next: CCCCC/C=C\C/C=C\CCCCCCCC(=O)NC(C)c1ccc(Cl)cc1 (stereo not drawn) [drawing 25]
217

Try this compound next: CCCCC/C=C\C/C=C\CCCCCCCC(=O)NC(C)c1ccc(C)cc1 (stereo not drawn) [drawing 23]
240

Then this compound:
Fill in the blank: the reported Serum cholesterol of CCCCC/C=C\C/C=C\CCCCCCCC(=O)NC(CC)c1ccc(C)cc1 (stereo not drawn) [drawing 24] is ____.
321
